# IC50 listing for each entry below
Target Desc: Fatty acid synthase (Homo sapiens, UniProt P49327)
Sequence (P49327 whole entry): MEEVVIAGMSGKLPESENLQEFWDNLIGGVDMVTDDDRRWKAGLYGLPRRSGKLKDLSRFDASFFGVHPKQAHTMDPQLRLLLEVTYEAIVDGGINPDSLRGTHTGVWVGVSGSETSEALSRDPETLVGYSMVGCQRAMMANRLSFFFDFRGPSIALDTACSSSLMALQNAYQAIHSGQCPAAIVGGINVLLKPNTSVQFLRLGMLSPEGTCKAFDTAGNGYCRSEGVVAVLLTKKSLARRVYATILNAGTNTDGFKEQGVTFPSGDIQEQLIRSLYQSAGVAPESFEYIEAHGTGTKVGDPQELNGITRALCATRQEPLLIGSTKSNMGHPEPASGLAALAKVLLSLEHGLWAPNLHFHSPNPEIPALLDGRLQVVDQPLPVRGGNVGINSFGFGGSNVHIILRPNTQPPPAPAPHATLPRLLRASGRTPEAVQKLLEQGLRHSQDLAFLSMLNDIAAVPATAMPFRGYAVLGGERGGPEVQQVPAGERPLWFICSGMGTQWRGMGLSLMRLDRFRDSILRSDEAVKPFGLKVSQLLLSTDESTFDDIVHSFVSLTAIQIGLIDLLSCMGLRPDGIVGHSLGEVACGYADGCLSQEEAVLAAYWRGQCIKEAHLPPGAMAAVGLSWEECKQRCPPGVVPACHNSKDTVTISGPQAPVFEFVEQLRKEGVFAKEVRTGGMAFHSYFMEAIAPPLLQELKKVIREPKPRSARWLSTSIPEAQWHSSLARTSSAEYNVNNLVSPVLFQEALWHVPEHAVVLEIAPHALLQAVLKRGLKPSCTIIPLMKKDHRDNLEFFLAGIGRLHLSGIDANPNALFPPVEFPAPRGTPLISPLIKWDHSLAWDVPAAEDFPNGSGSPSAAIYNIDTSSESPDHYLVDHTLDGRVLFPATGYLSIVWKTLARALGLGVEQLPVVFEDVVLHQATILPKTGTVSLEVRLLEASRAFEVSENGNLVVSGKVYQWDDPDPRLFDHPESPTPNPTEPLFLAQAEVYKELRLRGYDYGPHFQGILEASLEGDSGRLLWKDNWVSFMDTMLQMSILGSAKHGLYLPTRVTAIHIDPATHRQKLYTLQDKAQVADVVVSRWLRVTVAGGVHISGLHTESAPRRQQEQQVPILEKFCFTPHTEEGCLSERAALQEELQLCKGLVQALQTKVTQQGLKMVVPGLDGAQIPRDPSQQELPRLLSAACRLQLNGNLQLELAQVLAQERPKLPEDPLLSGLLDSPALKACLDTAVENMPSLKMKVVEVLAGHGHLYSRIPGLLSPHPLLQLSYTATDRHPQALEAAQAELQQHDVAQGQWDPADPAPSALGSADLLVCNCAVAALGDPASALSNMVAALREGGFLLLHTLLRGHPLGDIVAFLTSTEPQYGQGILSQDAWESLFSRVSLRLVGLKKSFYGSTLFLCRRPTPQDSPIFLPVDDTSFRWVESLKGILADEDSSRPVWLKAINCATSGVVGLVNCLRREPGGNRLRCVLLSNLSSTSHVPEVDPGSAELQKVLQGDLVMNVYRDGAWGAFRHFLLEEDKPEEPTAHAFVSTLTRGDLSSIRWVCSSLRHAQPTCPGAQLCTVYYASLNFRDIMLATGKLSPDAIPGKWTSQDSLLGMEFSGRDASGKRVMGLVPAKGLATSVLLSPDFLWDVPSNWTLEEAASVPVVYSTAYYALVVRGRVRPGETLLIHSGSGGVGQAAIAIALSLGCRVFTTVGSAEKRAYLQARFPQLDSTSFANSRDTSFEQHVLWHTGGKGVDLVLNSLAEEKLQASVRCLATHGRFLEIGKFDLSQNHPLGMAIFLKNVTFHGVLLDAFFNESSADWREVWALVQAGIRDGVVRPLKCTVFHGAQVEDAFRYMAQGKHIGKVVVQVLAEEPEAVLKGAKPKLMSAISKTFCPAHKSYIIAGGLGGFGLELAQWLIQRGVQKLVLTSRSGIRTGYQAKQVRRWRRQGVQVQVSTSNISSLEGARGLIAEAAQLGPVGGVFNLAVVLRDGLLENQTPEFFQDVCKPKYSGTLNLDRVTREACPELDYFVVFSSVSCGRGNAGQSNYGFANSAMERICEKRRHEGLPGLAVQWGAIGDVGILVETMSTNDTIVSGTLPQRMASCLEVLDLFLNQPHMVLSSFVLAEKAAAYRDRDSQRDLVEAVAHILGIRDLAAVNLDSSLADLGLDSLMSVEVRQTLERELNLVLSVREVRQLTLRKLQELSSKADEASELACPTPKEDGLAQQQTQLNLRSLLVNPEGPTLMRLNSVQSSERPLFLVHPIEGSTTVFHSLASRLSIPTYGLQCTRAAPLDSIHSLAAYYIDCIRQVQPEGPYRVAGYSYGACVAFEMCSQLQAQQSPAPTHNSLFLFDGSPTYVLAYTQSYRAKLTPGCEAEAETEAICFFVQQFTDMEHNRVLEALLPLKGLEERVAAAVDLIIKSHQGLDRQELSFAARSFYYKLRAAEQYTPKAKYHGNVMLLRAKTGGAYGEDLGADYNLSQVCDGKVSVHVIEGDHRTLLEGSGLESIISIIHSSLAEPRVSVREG
Experimental Protocol: inhibition of human FAS-TE enzyme activity – biochemical, endpoint fluorescence intensity, uHTS hits, dose response (AID 624327);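 further: fluorescence from hydrolysis of an O-methyl fluorescein acyl ester substrate by the enzyme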
Type: functional
Activity calls are given as the source filed them.

Sample records with IC50:
CC(C)(C)c1ccc(OCCSc2nc3ccccc3n2CC(=O)O)cc1 : 2.39 µM (active)
CCOc1cccc2cc(C(=O)NCCC3=CCCCC3)c(=O)oc12 : 3.95 µM (active)
O=C(Nc1ccc(Cl)cc1)C(Cl)C(=O)c1ccccc1 (configuration not stated) : 4.3 µM (active)
CC(=O)c1cccc(OC(=O)Oc2cccc(C(C)=O)c2)c1 : 10.5 µM (active)
Cc1ccc(S(=O)(=O)N(C)C)cc1NC(S)=NC(C)CCCC(C)C (configuration not stated) : 12.3 µM (active)

INPUT: Item COc1ccc([C@H]2CC(=O)C=C(c3ccc(C)c([N+](=O)[O-])c3)C2)cc1 has what recorded IC50?
OUTPUT: 2.65 µM (active)

INPUT: Would you mind doing O=C(NC1CCCCC1)C1CC(=O)N(c2cccc([N+](=O)[O-])c2)C1 (configuration not stated) as well?
OUTPUT: 3.47 µM (active)

INPUT: Would you mind doing COC(=O)C1CCN(C(=O)COC(=O)c2cc([N+](=O)[O-])ccc2N2CCOCC2)CC1 as well?
OUTPUT: 5.73 µM (active)

INPUT: Would you mind doing CN1C[C@H](C(=O)N[C@]2(C)O[C@@]3(O)[C@@H]4CCCN4C(=O)[C@H](Cc4ccccc4)N3C2=O)CC2c3cccc4[nH]cc(c34)C[C@H]21 (some centres not stated) as well?
OUTPUT: 9.27 µM (active)

INPUT: Would you mind doing COc1ccc(C(=O)OCC(=O)Nc2ccccc2)cc1[N+](=O)[O-] as well?
OUTPUT: 7.38 µM (active)

INPUT: Would you mind doing O=C(COC(=O)c1cc([N+](=O)[O-])ccc1N1CCCC1)Nc1ccccc1OC(F)F as well?
OUTPUT: 8.72 µM (active)

INPUT: Would you mind doing COc1cc(-c2ccc(Nc3ccccc3C(=O)O)c(OC)c2)ccc1Nc1ccccc1C(=O)O as well?
OUTPUT: 7.61 µM (active)

* * *

Target Desc: Short transient receptor potential channel 4 (Mus musculus, UniProt Q9QUQ5)
Sequence (Q9QUQ5 whole entry): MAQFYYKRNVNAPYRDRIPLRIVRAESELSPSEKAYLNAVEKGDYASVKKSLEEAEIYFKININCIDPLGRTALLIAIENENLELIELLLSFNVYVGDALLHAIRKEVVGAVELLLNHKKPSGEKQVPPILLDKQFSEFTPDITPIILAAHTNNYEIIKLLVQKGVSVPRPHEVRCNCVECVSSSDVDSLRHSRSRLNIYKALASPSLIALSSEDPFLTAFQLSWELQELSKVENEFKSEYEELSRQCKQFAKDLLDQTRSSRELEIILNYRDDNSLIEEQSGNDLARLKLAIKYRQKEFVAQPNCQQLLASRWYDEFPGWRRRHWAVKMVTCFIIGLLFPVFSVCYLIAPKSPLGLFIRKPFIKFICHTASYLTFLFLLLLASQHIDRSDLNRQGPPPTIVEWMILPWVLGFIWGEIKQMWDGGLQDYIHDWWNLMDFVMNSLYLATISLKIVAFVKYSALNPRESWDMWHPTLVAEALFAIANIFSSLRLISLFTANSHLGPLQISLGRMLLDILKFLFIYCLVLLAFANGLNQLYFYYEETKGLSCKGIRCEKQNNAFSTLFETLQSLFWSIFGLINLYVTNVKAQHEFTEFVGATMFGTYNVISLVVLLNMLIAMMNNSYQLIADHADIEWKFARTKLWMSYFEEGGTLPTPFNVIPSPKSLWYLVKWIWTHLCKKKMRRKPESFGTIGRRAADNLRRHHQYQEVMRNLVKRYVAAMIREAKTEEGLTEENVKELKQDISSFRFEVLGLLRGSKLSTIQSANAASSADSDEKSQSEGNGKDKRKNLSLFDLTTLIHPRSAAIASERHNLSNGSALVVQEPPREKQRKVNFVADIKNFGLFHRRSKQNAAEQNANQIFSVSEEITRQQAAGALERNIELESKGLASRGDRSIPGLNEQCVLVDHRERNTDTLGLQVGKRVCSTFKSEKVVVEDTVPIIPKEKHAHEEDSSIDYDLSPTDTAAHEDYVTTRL
Experimental Protocol: block of DAMGO-driven TRPC4 calcium entry – cell-based, HEK293 TRPC4/mu-opioid, Fluo-4 calcium, dose response (AID 434942);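 further: potency of inhibitors blocking the TRPC4 calcium response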
Assay type: functional
Activity calls are given as the source filed them.
Quantity Measured: EC50

INPUT: Item CCOC(=O)c1oc2ccccc2c1CN1CCCCC1 has what recorded EC50?
OUTPUT: 4.22 µM (active)

INPUT: Would you mind doing COc1ccc(C2NC(C(=O)O)Cc3c2[nH]c2ccccc32)cc1CN1CCN(c2ccc(F)cc2)CC1 (stereo not drawn) as well?
OUTPUT: 0.531 µM (active)

INPUT: Would you mind doing CN(C)CCN1C(=O)C2C(C(=O)Nc3cc(Cl)cc(Cl)c3)C3C=CC2(O3)C1C(=O)NC1CCCCC1 (stereo not drawn) as well?
OUTPUT: 6.68 µM (active)

* * *

Target Desc: Methionyl-tRNA synthetase, putative (Trypanosoma brucei brucei, UniProt Q38C91);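 further: Read-out by fluorescence polarization, run as a confirmatory high-throughput counterscreen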;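 further: potency of MetRS inhibitors measured by reduced AMP formation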
Sequence (Q38C91 whole entry): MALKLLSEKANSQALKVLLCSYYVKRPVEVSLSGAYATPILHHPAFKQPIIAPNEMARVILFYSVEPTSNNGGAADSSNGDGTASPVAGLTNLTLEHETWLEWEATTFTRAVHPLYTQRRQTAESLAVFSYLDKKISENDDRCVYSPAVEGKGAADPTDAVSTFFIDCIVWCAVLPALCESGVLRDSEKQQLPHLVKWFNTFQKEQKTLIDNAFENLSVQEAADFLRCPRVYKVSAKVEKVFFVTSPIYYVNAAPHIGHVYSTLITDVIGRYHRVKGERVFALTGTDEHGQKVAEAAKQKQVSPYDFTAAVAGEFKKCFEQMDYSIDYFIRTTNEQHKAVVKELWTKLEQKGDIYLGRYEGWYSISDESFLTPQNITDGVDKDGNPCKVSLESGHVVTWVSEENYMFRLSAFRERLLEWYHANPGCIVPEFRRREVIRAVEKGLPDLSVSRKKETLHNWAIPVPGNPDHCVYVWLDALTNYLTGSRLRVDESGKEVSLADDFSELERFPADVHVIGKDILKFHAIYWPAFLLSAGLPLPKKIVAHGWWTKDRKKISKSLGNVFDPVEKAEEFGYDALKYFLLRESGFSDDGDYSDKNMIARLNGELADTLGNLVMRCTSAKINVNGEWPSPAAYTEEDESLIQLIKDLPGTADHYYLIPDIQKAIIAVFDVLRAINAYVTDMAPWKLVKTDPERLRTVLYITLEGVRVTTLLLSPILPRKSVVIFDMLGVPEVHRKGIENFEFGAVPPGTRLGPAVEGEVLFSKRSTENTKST
Format: functional, Trypanosoma brucei brucei strain 927/4 GUTat10.1
Calls of active or inactive are those of the source.
Quantity Measured: IC50

Sample records with IC50:
CCN1C(=O)C(CC(=O)Nc2ccc(OC)cc2)N(CCc2ccccc2)C1=S (centres undefined) : 23.5 µM (inactive)
COC(=O)/C(=C\Nc1ccccc1)NC(=O)c1ccc(Cl)cc1Cl : 6.89 µM (active)
NC(=O)c1cccc(-c2ccnc3c2CC(C(=O)Nc2ccc(Cl)cc2)O3)c1 (centres undefined) : 18.7 µM (inactive)

Now take the following compound into account.
INPUT: Item Nc1cc(Oc2ccc(Cl)cc2Cl)nc(N)n1 has what recorded IC50?
OUTPUT: 29.4 µM (inactive)

* * *

Target protein (sequence): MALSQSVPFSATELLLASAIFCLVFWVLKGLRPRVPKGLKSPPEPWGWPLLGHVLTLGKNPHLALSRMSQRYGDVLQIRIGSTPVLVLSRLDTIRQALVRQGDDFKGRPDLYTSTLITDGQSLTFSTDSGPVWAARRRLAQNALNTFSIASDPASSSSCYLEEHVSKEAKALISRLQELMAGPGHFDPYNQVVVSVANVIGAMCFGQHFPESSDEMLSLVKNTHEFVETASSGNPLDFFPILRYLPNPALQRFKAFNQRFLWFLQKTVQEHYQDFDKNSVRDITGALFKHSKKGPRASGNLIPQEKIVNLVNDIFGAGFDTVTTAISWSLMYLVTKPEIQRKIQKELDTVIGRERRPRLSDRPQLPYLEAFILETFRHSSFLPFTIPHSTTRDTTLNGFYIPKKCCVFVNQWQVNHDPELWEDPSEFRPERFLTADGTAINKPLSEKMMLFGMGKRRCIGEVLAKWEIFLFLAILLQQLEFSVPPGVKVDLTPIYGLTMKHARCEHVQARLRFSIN
# AC50 listing for each entry below

Sample records with AC50:
COc1ccc(N(C(=O)COc2ccccc2OC)S(=O)(=O)c2ccc(C)cc2)cc1 : 4.47 µM (inconclusive)
N#CCCn1c(=O)c(-c2ccccc2)nc2cnc(N3CCOCC3)nc21 : 10 µM (inconclusive)
Cn1cccc1C(=O)N1CCC2(CCN(Cc3ccncc3)CC2)CC1 : 15.8 µM (inconclusive)
CNc1cc(-c2ccccc2CN(C)C)ncn1 : 31.6 µM (inconclusive)

INPUT: Item O=C(C[n+]1cccc(NC(=O)c2ccccc2)c1)c1ccc(NC(=O)c2ccccc2)cc1 has what recorded AC50?
OUTPUT: 17.8 µM (inconclusive)

INPUT: Would you mind doing CC(=O)Nc1ccc(NC(=O)CSc2ncnn2-c2ccccc2)cc1 as well?
OUTPUT: 28.2 µM (inconclusive)

INPUT: Would you mind doing CC(C)Oc1ccc(CSC(=N)N)cc1 as well?
OUTPUT: 22.4 µM (inconclusive)

INPUT: Would you mind doing O=C(NC1CCCCC1)C1CC=CCC1C(=O)OCC(Cl)=C(Cl)Cl (stereo unspecified) as well?
OUTPUT: 25.1 µM (inconclusive)

INPUT: Would you mind doing COc1cccc(CNCCNC(=O)c2nonc2N)c1 as well?
OUTPUT: 39.8 µM (inconclusive)

INPUT: Would you mind doing O=S(=O)(C=C(c1ccccc1)c1ccccc1)c1ccccc1 as well?
OUTPUT: 28.2 µM (inconclusive)

INPUT: Would you mind doing CC(C)(C)c1cc(Br)c(O)c(CN(Cc2cc(C(C)(C)C)cc(Br)c2O)C2CCCCC2)c1 as well?
OUTPUT: 5.01 µM (inconclusive)

* * *

Target Desc: UniProtKB P38532
Sequence (P38532 whole entry): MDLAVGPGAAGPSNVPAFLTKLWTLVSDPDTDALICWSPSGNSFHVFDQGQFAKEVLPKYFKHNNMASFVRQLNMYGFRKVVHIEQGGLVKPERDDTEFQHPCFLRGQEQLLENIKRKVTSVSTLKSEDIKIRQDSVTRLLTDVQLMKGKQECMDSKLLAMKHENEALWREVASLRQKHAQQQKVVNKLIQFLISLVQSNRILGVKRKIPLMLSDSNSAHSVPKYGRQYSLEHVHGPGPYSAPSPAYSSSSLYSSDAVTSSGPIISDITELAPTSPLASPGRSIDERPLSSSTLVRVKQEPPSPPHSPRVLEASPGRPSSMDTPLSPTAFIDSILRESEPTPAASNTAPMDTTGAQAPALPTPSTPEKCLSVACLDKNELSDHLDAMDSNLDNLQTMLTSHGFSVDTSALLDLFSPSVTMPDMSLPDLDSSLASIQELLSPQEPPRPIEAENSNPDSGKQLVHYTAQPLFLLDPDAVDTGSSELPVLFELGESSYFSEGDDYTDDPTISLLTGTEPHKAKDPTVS
Experimental Protocol: decrease of HSF1-responsive luciferase luminescence – cell-based, NIH3T3, dose retest, confirmation (AID 2382);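 further: NIH3T3 fibroblasts with HSF1-driven luciferase reporter stressed by proteasome inhibitor MG132; luminescence from HSF1-driven luciferase expression after 8 hours of MG132 stress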
Type: functional
Activity calls are given as the source filed them.
# EC50 listing for each entry below

Sample records with EC50:
S=C(N/N=C1\CCc2ccccc21)NC1CCCCC1 : 87.7 µM (active)
O=C(CNC(=O)c1cccnc1)N/N=C/c1cc(Br)c(O)c(Br)c1 : > 195 µM (not active)
Cc1ccc(F)cc1N=C(S)NCCc1ccccc1 : > 195 µM (not active)
COc1cccc(NC(=O)N2CCCC2C(=O)NC(C)C)c1 (stereo not drawn) : 152 µM (active)
Cc1ccc2[nH]c(-c3sc4nc(C)cc(C)c4c3N)nc2c1 : 21 µM (active)

INPUT: Item CNC(=O)NC(=S)NC(=O)c1ccccc1Cl has what recorded EC50?
OUTPUT: > 195 µM (not active)

INPUT: Would you mind doing COc1ccc(NC(=O)C2Cc3ccccc3C(=O)O2)cc1 (stereo not drawn) as well?
OUTPUT: > 195 µM (not active)

INPUT: Would you mind doing Cc1ccc(-c2cc(C(=O)NCCCN3CCOCC3)no2)cc1 as well?
OUTPUT: 19.1 µM (active)

INPUT: Would you mind doing CC[n+]1c(/C=C/c2cc([N+](=O)[O-])ccc2O)ccc2ccccc21 as well?
OUTPUT: > 195 µM (not active)

INPUT: Would you mind doing COc1ccc(O)c(-c2c(C)n[nH]c2-c2ccc(Cl)cc2)c1 as well?
OUTPUT: > 195 µM (not active)

INPUT: Would you mind doing CN(/C(=N\S(=O)(=O)c1ccccc1)C(F)(F)F)c1ccccc1 as well?
OUTPUT: > 195 µM (not active)

INPUT: Would you mind doing COC(=O)[C@@H]1[C@@H](C(=O)OC)C2(c3ccccc3-c3ccccc32)N(c2ccc(Cl)cc2)N1C#N as well?
OUTPUT: 8.22 µM (inconclusive)

INPUT: Would you mind doing COC(=O)c1cc(S(=O)(=O)NCCc2ccccc2)c[nH]1 as well?
OUTPUT: > 195 µM (not active)
